- tested-on: ZFP SBS#988 (synthetic)
- Sequence (chain, as listed by the source): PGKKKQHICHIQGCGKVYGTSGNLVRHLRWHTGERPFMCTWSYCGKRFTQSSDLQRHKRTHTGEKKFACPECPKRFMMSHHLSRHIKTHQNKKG
- assay-remarks: EMSA
- reported-conditions: tags: MBP fusion

# binder, Kd [nM]
data = [
    ("GGTGCTGAT (dsDNA) DNA 1: GGTGCTGAT DNA 2: ATCAGCACC", 0.15),
]

Data origin, for the record: patent US20030068675
